System: HL-60 (acute promyelocytic leukemia)
Test: Antiproliferative MTT assay, HL-60
Type: cell-based, human
Settings: Homo sapiens, HL-60, 72 h, mean ± SD of three experiments
Answer each item with its documented IC50.
Please answer using a numeric value trailed by its unit.

Would you mind telling me what IC50 value was observed for Clc1ccc2c(NCCCOc3ccc(-c4nc5ccc(Cl)cc5[nH]4)cc3Br)ccnc2c1 [Compound 14b] ?
0.4 µM

Please answer likewise for COc1ccc2nc(-c3ccc(OCCNc4ccnc5cc(Cl)ccc45)c(Br)c3)[nH]c2c1 [Compound 11c]
2.2 µM

Repeat for the following compound: Clc1ccc2c(NCCCOc3ccc(-c4nc5ccc(Cl)cc5[nH]4)cc3)ccnc2c1 [Compound 13b]
0.2 µM

And what about the compound N=C(NC1CCCC1)c1ccc2nc(-c3ccc(OCCCNc4ccnc5cc(Cl)ccc45)cc3)[nH]c2c1 [Compound 13d] ?
18.2 µM
